# Test system: Versican
# ASSAY_METHOD_TEXT: Real-time PCR gene expression in dermal papilla cells: versican
# Format: cell-based, human
# TEST_CONTEXT: 10 μg/mL; non-treated group = 100
READOUT_KIND: Expression of Genes (%): Versican

- COMPOUND: "O=C(O)c1cc(O)c2c(c1)C(=O)c1cccc(O)c1C2=O"
  TGT: "Versican"
  READOUT_KIND: "Expression of Genes (%): Versican"
  RECORDED_NUMBER: 154
- COMPOUND: "COc1ccc(/C=C/c2cc(O)cc(O[C@@H]3O[C@H](CO)[C@@H](O)[C@H](O)[C@H]3O)c2)cc1O"
  TGT: "Versican"
  READOUT_KIND: "Expression of Genes (%): Versican"
  RECORDED_NUMBER: 130
- COMPOUND: "COc1cc(OC2OC(CO)C(O)C(O)C2O)c2c(c1)C(=O)c1cc(C)cc(O)c1C2=O (stereo not drawn) [Physicon-8-O-d-glucopyranoside]"
  TGT: "Versican"
  READOUT_KIND: "Expression of Genes (%): Versican"
  RECORDED_NUMBER: 175
- COMPOUND: "Cc1cc(O)c2c(c1)C(=O)c1cccc(O)c1C2=O"
  TGT: "Versican"
  READOUT_KIND: "Expression of Genes (%): Versican"
  RECORDED_NUMBER: 158
